# Test system: Human immunodeficiency virus 1
# Protocol: Antiviral activity against HIV1 Ba-L(R5) infected in human PBMC by p24 antigen capture assay
# Study Conditions: Human immunodeficiency virus 1, Ba-L(R5)

Compound Smiles	Test System	IC50, µM
Cc1c(O)cccc1C(=O)N[C@@H](CSc1ccccc1)[C@H](O)CN1C[C@H]2CCCC[C@H]2C[C@H]1C(=O)NC(C)(C)C	Human immunodeficiency virus 1	0.012

###

# Protocol: Cmax in rat at 30 mg/kg, po administered as single dose
# Format: ADME, organism-based
# Design: dose 30 mg/kg, route oral
# Study Conditions: in vivo

Molecule	Cmax
CCCCN1C(=O)C(CC2CCCCC2)NC(=O)C12CCN(Cc1ccc(Oc3ccccc3)cc1)CC2.Cl (racemic)	16.7 ng/mL

###

# Test System: C-C chemokine receptor type 5 (Homo sapiens, UniProt P51681)
# Sequence (P51681 whole entry): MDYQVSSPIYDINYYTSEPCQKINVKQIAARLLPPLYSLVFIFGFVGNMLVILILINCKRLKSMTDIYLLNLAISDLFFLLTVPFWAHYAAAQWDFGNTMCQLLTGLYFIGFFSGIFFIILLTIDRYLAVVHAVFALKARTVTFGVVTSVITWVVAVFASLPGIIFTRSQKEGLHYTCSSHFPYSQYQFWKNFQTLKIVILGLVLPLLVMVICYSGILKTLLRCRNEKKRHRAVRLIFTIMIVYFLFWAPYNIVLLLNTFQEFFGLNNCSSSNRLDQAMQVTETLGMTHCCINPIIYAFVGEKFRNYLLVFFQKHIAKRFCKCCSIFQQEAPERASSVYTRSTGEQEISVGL
# Protocol: Antagonist activity at human CCR5 receptor overexpressed in CHO cells assessed as inhibition of MIP-1-alpha-induced calcium mobilization

Compound	IC50
CCCCN1C(=O)C(CC(C)C)NC(=O)C12CCN(Cc1ccc3c(c1)OCCO3)CC2 (racemic)	0.18 µM

###

# Protocol: Solubility of the compound
# Assay type: physicochemical

Compound	solubility
CCCCN1C(=O)C(CC2CCCCC2)NC(=O)C12CCN(Cc1ccc(Oc3ccccc3)cc1)CC2.Cl (racemic)	< 5 µM

The values you see were collected from ChEMBL document CHEMBL1153238.
